OUTCOME MEASURE: melting point

Recorded melting point, per entry:
Nc1ccccc1CCc1ccccc1N: 72 to 77 °C
Cc1cc(C)cc(P(c2cc(C)cc(C)c2)c2cc(C)cc(C)c2)c1: 160 to 162 °C

Batch request: melting point for each of the following compounds.
1. COC(=O)C1(C(=O)OC)Cc2ccc(C)cc2C(=O)O1
2. CSC(S)=Nc1ccc(Br)cc1
3. O=C(O)c1cccnc1Sc1ccccc1

Return:
120 to 121 °C
133 to 134 °C
165 to 167 °C

* * *

OUTCOME MEASURE: melting point

Recorded melting point, per entry:
O=S(=O)(Cl)c1ccc(-c2ccccn2)s1: 87 to 89 °C
Cc1cc(Cl)c(O)c(Cl)c1: 39 °C

Batch request: melting point for each of the following compounds.
1. CC12CCC3C(CCC4CC(O)(C#CCl)CCC43C)C1CCC2O (centres undefined)
2. COc1ccc2c(c1)CCC(C(=O)O)C2C (centres undefined)

Return:
120 °C
133 °C

Batch request: melting point for each of the following compounds.
1. O=C1OC(=O)C2=C1Cc1cc3c(cc1C2)CC3
2. Brc1ccc(I)cn1
3. COc1ccc(-c2onc(C(=O)c3ccc(Br)cc3)c2S(=O)(=O)c2ccccc2)cc1
4. CCOc1cc(Oc2ccc(C(F)(F)F)cc2Cl)ccc1[N+](=O)[O-]
5. Nc1cnc(N)c(Br)c1
6. O=Cc1sc(-c2ccccc2)nc1-c1ccccc1
7. Cc1ccc(NN=c2c(C)nc3ccccc3[nH]c2=O)cc1

Return:
["254 °C", "124 °C", "140 °C", "85.3 °C", "117 to 122 °C", "121 to 123 °C", "179 °C"]

Batch request: melting point for each of the following compounds.
1. O=Cc1ccc(Cl)c([N+](=O)[O-])c1
2. CCOC(=O)CNC(c1ccccc1)(c1ccccc1)c1ccccc1
3. Oc1ccc(Nc2ccc3ccccc3c2)cc1
4. CCCCCCC(O)CCCCCCCCCCC(=O)O (centres undefined)

Return:
63 °C
114 °C
140 °C
77.8 °C

Batch request: melting point for each of the following compounds.
1. O=[N+]([O-])c1cc([N+](=O)[O-])c(C=Nc2ccccc2)cc1C=Nc1ccccc1
2. O=C(O)CN(CCO)CCN(CC(=O)O)CC(=O)O

Return:
165 °C
212 to 214 °C

Batch request: melting point for each of the following compounds.
1. c1ccc2c3c(ccc2c1)-c1cccc2cccc-3c12
2. CC(C)(C)OC(=O)NCc1ccc(C=O)cc1

Return:
166 °C
83 to 84 °C
